Target: neural BZD (central BZD receptor)
Experiment: Benzodiazepine receptor binding, neural (central) BZD
Set-up: species or system rat
Settings: read-out: BENZ[…] BINDING, NEURAL BZD
Protocol: Crude membranes were prepared by homogenization of a rat forebrain sample in 20 ml of ice-cold 50 mM phosphate buffer (81 mM Na^+, 9 mMK^+) buffer with a Brinkman Polytron (setting 6, 15 sec). […] The inhibition constants (Ki) were calculated from the equation Ki=IC50/(I+L/Kd), where L is the radioligand concentration and Kd is the equilibrium dissociation constant for the radioligand. […]
Reported property: Ki (nM)

• CN1C(=O)CN=C(c2ccccc2)c2cc(Cl)ccc21 [DIAZEPAM, diazepam] = 8.4
